Consider the following compounds and their measured CC-v2 readings.
Biological target: Human ALDH3A1 (Homo sapiens)
Sequence (P30838 1-453): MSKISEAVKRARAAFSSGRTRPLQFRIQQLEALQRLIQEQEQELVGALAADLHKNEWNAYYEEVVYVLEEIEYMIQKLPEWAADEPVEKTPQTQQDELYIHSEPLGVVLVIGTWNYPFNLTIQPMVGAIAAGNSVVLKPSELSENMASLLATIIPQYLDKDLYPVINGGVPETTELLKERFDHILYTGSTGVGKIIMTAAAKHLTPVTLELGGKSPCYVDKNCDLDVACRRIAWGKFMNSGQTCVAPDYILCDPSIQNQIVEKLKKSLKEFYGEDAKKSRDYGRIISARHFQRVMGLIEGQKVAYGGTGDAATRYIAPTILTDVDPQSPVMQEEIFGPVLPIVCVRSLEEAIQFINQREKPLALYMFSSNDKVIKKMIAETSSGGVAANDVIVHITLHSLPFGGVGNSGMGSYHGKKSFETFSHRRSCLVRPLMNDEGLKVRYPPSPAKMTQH
Assay: ALDH3A1 biochemical assay (benzaldehyde/NADP+, diaphorase-resazurin readout, 1,536-well)
Details: Table S5, biochemical curve class

Worked examples follow.
- Structure String: "O=C(NCc1cccc(N2CCCC2=O)c1)c1csc(N2CCN(c3cccc(C(F)(F)F)c3)CC2)n1"
  CC-v2: -1.2
- Structure String: "O=C(NCc1cccc(Oc2ccccc2)c1)c1csc(N2CCN(c3cccc(C(F)(F)F)c3)CC2)n1"
  CC-v2: -1.1
- Structure String: "O=C(Nc1ccc(CNC(=O)c2csc(N3CCN(c4cccc(C(F)(F)F)c4)CC3)n2)cc1)c1ccc(F)cc1"
  CC-v2: -1.2

Moving on to the next compound.
Quick one: CC-v2 of `O=C(NCc1ccc(C(F)F)c(F)c1)c1csc(N2CCN(c3cccc(C(F)(F)F)c3)CC2)n1` ?
-1.1

* * *

target: Human ALDH3A1 (Homo sapiens, UniProt P30838); assay: ALDH3A1 biochemical assay (benzaldehyde/NADP+, diaphorase-resazurin readout, 1,536-well)
Consider the following compounds and their measured AC50 readings.
// return numeric value only (unit: µM, not printed)

Worked examples follow.
- Compound: "O=C(NCc1ccccc1Cl)c1csc(N2CCN(c3ccc(F)cc3)CC2)n1 [NCGC00430734-01]"
  Assay Target: "Human ALDH3A1 (Homo sapiens, UniProt P30838)"
  Val: 1.78
- Compound: "Cc1cc(CNC(=O)c2csc(N3CCN(c4cccc(C(F)(F)F)c4)CC3)n2)cc(C)c1Br [NCGC01407759-01]"
  Assay Target: "Human ALDH3A1 (Homo sapiens, UniProt P30838)"
  Val: 0.398
- Compound: "Cc1cccc(CNC(=O)c2csc(N3CCN(c4ccc(OC(F)(F)F)cc4)CC3)n2)c1 [NCGC01211384-01]"
  Assay Target: "Human ALDH3A1 (Homo sapiens, UniProt P30838)"
  Val: 0.65

Moving on to the next compound.
Quick one: AC50 of O=C(NCc1cccs1)c1csc(N2CCN(c3ccccc3F)CC2)n1 [NCGC00430730-01] ?
6.31

* * *

target: OE19 (3A1) (Homo sapiens, UniProt P30838); experiment: Cellular ALDEFLUOR assay in OE19 cells (preferential ALDH3A1 expression); conditions: Table S4, OE19 cells
Cell_Efficacy vs -90: at or above is T, below is F.

Study these solved cases before continuing.
- Structure String: "CCc1ccc(N2CCN(c3nc(C(=O)NCc4cccc(C)c4)cs3)CC2)cc1"
  Assay Target: "OE19 (3A1) (Homo sapiens, UniProt P30838)"
  Group Label: "T"
- Structure String: "Cc1cccc(CNC(=O)c2csc(N3CCN(c4ccc(C(F)(F)F)cn4)CC3)n2)c1"
  Assay Target: "OE19 (3A1) (Homo sapiens, UniProt P30838)"
  Group Label: "F"

Could you verify whether the entry `COc1ccc(F)c(N2CCN(c3nc(C(=O)NCc4cccc(C)c4)cs3)CC2)c1` shows Cell_Efficacy of no less than -90?
F

FYI, the data here is from paper PMC13266984.
